Measured growth of individual entries
Test system: MDA-MB-468 breast
ASSAY PROCEDURE: NCI-60 one-dose screen, 48 h (100 = growth as untreated, 0 = no growth, -100 = all killed)
MEASUREMENT SETUP: 10 µM unless noted
The panel holds about 83,000 compounds, 20% with a hit somewhere; the sample as a whole holds those more often.
Respond numerically; units are % and should not be typed.

Example results:
- MOLECULE: "Nc1ccc(Cl)cn1"
  MEASURED TARGET: "MDA-MB-468 breast"
  VALUE MEASURED: 102
- MOLECULE: "CCOP(=O)(OCC)/C(C#N)=C/c1c(C)[nH]c2ccccc12"
  MEASURED TARGET: "MDA-MB-468 breast"
  VALUE MEASURED: 99.7
- MOLECULE: "Cc1ccc(CNS(=O)(=O)/N=C2\\NC(=O)NC2=C(Cl)Cl)cc1"
  MEASURED TARGET: "MDA-MB-468 breast"
  VALUE MEASURED: 1.67
- MOLECULE: "CC1(C)N=C(N)N=C(N)N1c1cccc(CCCCOc2ccccc2)c1"
  MEASURED TARGET: "MDA-MB-468 breast"
  VALUE MEASURED: 10.1
- MOLECULE: "CC(O)c1nc2c(c(=O)n(C)c(=O)n2C)n1C (configuration not stated)"
  MEASURED TARGET: "MDA-MB-468 breast"
  VALUE MEASURED: 105
- MOLECULE: "O=C1CC[C@H](c2ccc(O)c3c2C(=O)[C@@H]2O[C@@H]2C3=O)c2cccc(O)c21"
  MEASURED TARGET: "MDA-MB-468 breast"
  VALUE MEASURED: -64.8
- MOLECULE: "COc1cc(-c2cc(/C=C/C(=O)c3ccc(F)c(F)c3)[nH]n2)cc(OC)c1OC"
  MEASURED TARGET: "MDA-MB-468 breast"
  VALUE MEASURED: 33.8
- MOLECULE: "O=[N+]([O-])c1cccc(-c2ncc(-c3ccc(Cl)cc3Cl)[nH]2)c1"
  MEASURED TARGET: "MDA-MB-468 breast"
  VALUE MEASURED: 47.6

Q. What growth value was documented for this molecule, CC(C)N(CCNc1nc(C(Cl)(Cl)Cl)nc2cc(Cl)ccc12)C(C)C ?
A. -50

Q. Can you handle CCn1cc(C(=O)NN=C2CCCC2)c(=O)c2ccc(C)nc21 next?
A. 91.8

Q. Same read-out for C[n+]1c(/C=C/c2ccc([N+](=O)[O-])cc2)ccc2ccccc21 ?
A. 52.5

Q. Same question for CC(=O)CC(=O)N(C)C please.
A. 96.8

Q. Can you handle CN1CCN(c2ccc(NC(=O)c3cncnc3Nc3ccc(OCc4cccc(F)c4)c(Cl)c3)cc2)CC1 next?
A. 71.8

Q. Let us now turn to COc1cc2c(c(OC)c1OC)-c1ccc(SC)c(=O)cc1[C@@H](NC1OC(CO)C(O)C(O)C1O)CC2 (some centres not stated)
A. 23.6

Q. Same for Cc1nnc(N/N=C/c2ccc([N+](=O)[O-])o2)[nH]c1=O
A. 31.2

Q. Follow-up entry: Nc1nccc(Nc2ccccc2)n1
A. 116

Q. Would you kindly repeat that for COc1ccc(CC(C)=C(c2ccc(OCCN3CCCC3)cc2)c2ccc(OCCN3CCCC3)cc2)cc1 ?
A. -85.2

Q. Now the molecule CCCC[n+]1c(/C=C\c2c(OC)cc(OC)cc2OC)ccc2ccccc21
A. -31

Q. Would you kindly repeat that for C[n+]1ccccc1C[n+]1ccccc1 ?
A. 117

Q. Subsequent entry: CCOC(=O)c1c(Nc2ccccc2)nn2c(N)c(C#N)c(-c3ccccc3)nc12
A. 62.4

Q. Also, COC(=O)c1nc(-c2ccccc2)oc1S(=O)(=O)n1nc(-c2ccccc2)cc1N please.
A. 74.6

Q. Same again, this time with Cc1ccc(C2=NN(c3ccc(S(=O)(=O)NC(=O)NCc4ccccc4)cc3)C(c3ccc(N(C)C)cc3)C2)c(C)c1 (configuration not stated)
A. 49.4

Q. Also need COC(=O)c1cc(Nc2ccc(O)c3c2C(=O)c2c([N+](=O)[O-])ccc(O)c2C3=O)cc(C(=O)OC)c1 , thanks.
A. 71.9

Q. What about this molecule? COc1cc2ccccc2cc1C(=O)NC(=S)Nc1ccc(-c2nc3ccccc3[nH]2)cc1
A. 90.2

Q. Also O=C(NNC(=O)c1ccc(-n2cc(-c3ccccc3)nn2)cc1)Nc1ccccc1 , if possible.
A. 109

Q. Request: O=c1oc2c(C(F)(F)F)cccc2cc1-c1csc(Nc2ccc(OCCF)cc2)n1
A. 5.55

Q. Another molecule to look at: CC(=O)Nc1nc(C)c(C(=O)NN)s1
A. 87.8

----------
Tested on: OVCAR-8 ovarian
ASSAY PROCEDURE: NCI-60 one-dose screen, 48 h (100 = growth as untreated, 0 = no growth, -100 = all killed)
MEASUREMENT SETUP: 10 µM
Compounds without any hit were thinned out: in the full panel of roughly 83,000, 20% have a hit.
Label Met when growth is at or above 30%; anything below gets Not met.

A selection of reference data follows.
- MOLECULE: "Fc1ccc(-c2csc(Nc3cccc(Nc4nc(-c5ccc(F)cc5)cs4)c3)n2)cc1"
  LABEL: "Met"
- MOLECULE: "Cc1ccc(S(=O)(=O)N2CCN(S(=O)(=O)c3oc(-c4ccccc4)nc3C#N)CC2)cc1"
  LABEL: "Met"
- MOLECULE: "O=C(c1ccc(F)cc1)C(c1c[nH]c2ccccc12)c1c[nH]c2ccccc12"
  LABEL: "Met"
- MOLECULE: "Cc1ccc(COc2ccc(NC(=O)Nc3ccc(Cl)c(C(F)(F)F)c3)cc2)cc1"
  LABEL: "Met"

Q. Determine whether this molecule has growth no lower than 30%: Cn1cc(-c2cc(N)n3nc(-c4cn(C)c5ccccc45)cc3n2)c2cc(F)ccc21
A. Not met

Q. How about this molecule: COc1ccc(Cc2nn(CC(=O)N/N=C/c3ccc([N+](=O)[O-])cc3)c(=O)c3c(C)noc23)cc1
A. Met

Q. Then this molecule: Nc1nnc(-c2c[nH]c3ncc(Br)cc23)c(-c2c[nH]c3ccc(Br)cc23)n1
A. Met

Q. Input COc1cccc(O)c1/C=C1\SCc2cc3c(OC)cccc3[o+]c21
A. Met

Q. Entry to check: Cn1cc(-c2nc(N)nnc2-c2c[nH]c3ccccc23)c2cc(Br)cnc21
A. Not met

Q. Would you kindly repeat that for O=C(c1ccccc1)c1ccc2nc(-c3ccccc3Br)[nH]c2c1 ?
A. Not met

----------
Catalogue of molecules with associated growth
Tested on: MDA-MB-468 breast
ASSAY PROCEDURE: NCI-60 one-dose screen, 48 h (100 = growth as untreated, 0 = no growth, -100 = all killed)
MEASUREMENT SETUP: 10 µM unless noted
Compounds without any hit were thinned out: in the full panel of roughly 83,000, 20% have a hit.
Expressed in %, but write only the number.

Below are worked cases with known answers.
- MOLECULE: "CC(=O)C1=C(O)C=C2Oc3c(C(=O)/C=C/c4cc(C(F)(F)F)cc(C(F)(F)F)c4)c(O)c(C)c(O)c3[C@]2(C)C1=O"
  MEASURED TARGET: "MDA-MB-468 breast"
  growth, %: -69.3
- MOLECULE: "CCN(CC)CCCC(C)Nc1cnc(C(=O)Nc2cc(C)cc3cccnc23)cn1 (centres undefined)"
  MEASURED TARGET: "MDA-MB-468 breast"
  growth, %: 9.36
- MOLECULE: "O=C1c2ccccc2C(=Cc2ccccc2)c2ccccc21"
  MEASURED TARGET: "MDA-MB-468 breast"
  growth, %: -7.09

Then there is this molecule:
Q. Look at this molecule and give its reported growth. COC1=CC(c2ccc[nH]2)=N/C1=C\c1[nH]c(C)c(C(=O)CCCCCCCCC(=O)O[C@H]2CC[C@H]3C4CCc5cc(O)ccc5C4CC[C@]23C)c1C (some centres undefined)
A. 37.5

----------
Tested on: MDA-MB-468 breast
ASSAY PROCEDURE: NCI-60 one-dose screen, 48 h
MEASUREMENT SETUP: 10 µM unless noted
The panel holds about 83,000 compounds, 20% with a hit somewhere; the sample as a whole holds those more often. Active and inactive are the calls of the source. How the source made its calls: active means growth percent below 10; inactive means the rest.
// one of active, inactive, no free text

Worked examples, 4 compounds total:
- COMPOUND: "COc1ncc(-c2ccc3ncnc(Nc4cccc(Cl)c4)c3c2)cc1NS(=O)(=O)C1CC1"
  LABEL: "active"
- COMPOUND: "N#Cc1c2ncccc2c2nnc3cc(Cl)c(Cl)cc3n12"
  LABEL: "inactive"
- COMPOUND: "COc1cc(/C=C2\\C(=O)N(c3c(Cl)cccc3Cl)c3ccccc32)cc(OC)c1OCCCCCCn1c2ccccc2c(=O)c2ccccc21"
  LABEL: "inactive"
- COMPOUND: "Cc1cc(O)c2c(c1)C1OC(=O)CCCCCN1C1=C2C(=O)c2cccc(OC3CC(O)C(O)C(C)O3)c2C1=O (configuration not stated)"
  LABEL: "inactive"

Q. What did this assay record as the result for O=C(Nc1ncc(Cc2ccc(Cl)cc2)s1)C1=NCCCCN1 ?
A. inactive

Q. Query O=C(c1ccccc1)N(C(=O)c1ccccc1)N1CCCC1 next
A. inactive

Q. Now this one: COc1ccc(CN2c3ccccc3Sc3ccccc32)c(F)c1
A. active

Q. Try the compound CN1CCN(Cc2ccc(NC(=O)c3cncc(C#Cc4cnc5ccc(OCCCS(C)(=O)=O)nn45)c3)cc2C(F)(F)F)CC1
A. active

Q. Same for Cc1nn2c(-c3nc4cc(Cl)c(Cl)cc4[nH]3)c(-c3ccc(F)cc3)nc2s1
A. active

Q. // same read-out, input: CCN1CCC2(CC1)NC(=O)c1c(c3ccc(Cl)c(Cl)c3n1C)C2C#N (configuration not stated)
A. active

Q. What about Cc1ccc(N)cc1[N+](=O)[O-] ?
A. inactive

Q. Do the same for COc1cc(C(=O)/C=C/c2cc(-c3ccc4c(c3)OCO4)n[nH]2)cc(OC)c1OC please
A. inactive

Q. Please give the result for COc1ccc(Nc2cc(C)nc(NCc3ccccc3)n2)cc1 too.
A. inactive
